- system-under-test: DPP-IV (Homo sapiens)
- Construct: an extract of the human colon carcinoma cell line Caco-2 is used as the DPP IV source; endogenous in cells; Nonidet-P40 solubilised extract
- Sequence (P27487 whole entry): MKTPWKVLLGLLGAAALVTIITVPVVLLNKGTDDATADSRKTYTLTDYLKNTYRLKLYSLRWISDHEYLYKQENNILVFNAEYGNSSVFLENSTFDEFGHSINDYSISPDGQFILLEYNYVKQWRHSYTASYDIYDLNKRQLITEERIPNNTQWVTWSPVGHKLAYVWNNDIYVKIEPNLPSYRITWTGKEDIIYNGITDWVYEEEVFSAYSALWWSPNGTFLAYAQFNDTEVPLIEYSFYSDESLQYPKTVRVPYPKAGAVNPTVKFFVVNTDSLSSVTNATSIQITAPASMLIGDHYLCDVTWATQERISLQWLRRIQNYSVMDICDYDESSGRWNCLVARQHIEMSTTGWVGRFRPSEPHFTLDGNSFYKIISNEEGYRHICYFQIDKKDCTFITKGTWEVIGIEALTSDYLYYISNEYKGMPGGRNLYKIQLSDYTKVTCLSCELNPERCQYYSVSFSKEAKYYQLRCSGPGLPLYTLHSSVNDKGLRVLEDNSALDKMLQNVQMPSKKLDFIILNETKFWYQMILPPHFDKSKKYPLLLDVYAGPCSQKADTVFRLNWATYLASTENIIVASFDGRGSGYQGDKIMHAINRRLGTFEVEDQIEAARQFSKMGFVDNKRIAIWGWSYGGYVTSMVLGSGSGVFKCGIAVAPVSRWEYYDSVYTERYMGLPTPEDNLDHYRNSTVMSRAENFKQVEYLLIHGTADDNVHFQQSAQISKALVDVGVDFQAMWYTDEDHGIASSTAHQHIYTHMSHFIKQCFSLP
- assay-notes: DPP-IV assay with extract of Caco-2 cells as DPP IV source, AFC substrate, fluorescence
- conditions: extract of human colon carcinoma cell line Caco-2; substrate 100 μM; 60 minutes at ambient temperature; read-out: DPP IV inhibition IC50
- Procedure: The cell extract was obtained from cells solubilised in a buffer (10 mM Tris HCl, 0.15 M NaCl, 0.04 t.i.u. aprotinin, 0.5% Nonidet-P40, pH 8.0) by centrifugation at 35,000 g for 30 minutes at 4° C. (to remove cell debris). The DPP-IV assay was carried out as follows: 50 μl of substrate solution (AFC; AFC is amido-4-trifluoromethylcoumarin), final concentration 100 μM, were placed in black microtitre plates. […]
measurement-label: pIC50
The quantity pIC50 is defined as the negative base-10 logarithm of the molar concentration.

1. CC#CCn1c(N2CCNCC2)nc2cnn(Cc3ccc4c(c3)nnn4C)c(=O)c21: 8.70
2. CC#CCn1c(N2CCNCC2)nc2cnn(Cc3nc4c(C)cccc4o3)c(=O)c21: 8.52

Prompt line: Can you share its pIC50? I mean this compound: CC#CCn1c(N2CCCNCC2)nc2cnn(Cc3nc4c(C)cccc4o3)c(=O)c21
Response line: 8.30

Prompt line: Same thing, different compound: CC#CCn1c(N2CCCNCC2)nc2cnn(Cc3cc(C)c4nc(C)c(C)nc4c3)c(=O)c21
Response line: 7.77

Prompt line: How about this compound: CC#CCn1c(N2CCCNCC2)nc2cnn(Cc3ccc4c(c3)nnn4C)c(=O)c21
Response line: 8.40

Prompt line: Now the same for CC#CCn1c(N2CCNCC2)nc2cnn(Cc3cc(C)c4nc(C)c(C)nc4c3)c(=O)c21
Response line: 7.85
